Sourced from patent US20190144550A1

TESTED_ON: T1, human EGFRvIII expressed on cells (human, UniProt P00533 298-1210)
T1 construct: the F98-npEGFRvIII line was obtained from ATCC and its construct is not described; also called F98-npEGFRvIII; F98-EGFRvIII
PROCEDURE_TEXT: flow cytometry, F98-npEGFRvIII cells; also: test concentration or dose not given here
REPORTED_METRIC: MFI
Give bare numbers.

{"BINDER": "21E11 (antibody, V domains shown, Hybridoma supernatant (AlivaMab mouse); captured/detected via mouse Fc) VH: QVTLKESGPVLVKPTETLTLTCTVSGFSLSNVRMGVSWIRQPPGKALEWFAHIFSSDEKSIRRSLRSRLTLSKDTSKSQVVLTMTNMDPVDTATYYCARDSSNYEGYFDFWGQGTLVTVSS VL: DMVVTQSPATLSVSPGERATLSCRASQSVGSDLAWYQQPPGQSPRLLIYGASTRATGVPARFSGSGSGTDFTLTITSLESEDFAVYYCQQYNDWPFTFGPGTKVDIK", "MFI": 3100}
{"BINDER": "19A9 (antibody, V domains shown, Hybridoma supernatant (AlivaMab mouse); captured/detected via mouse Fc) VH: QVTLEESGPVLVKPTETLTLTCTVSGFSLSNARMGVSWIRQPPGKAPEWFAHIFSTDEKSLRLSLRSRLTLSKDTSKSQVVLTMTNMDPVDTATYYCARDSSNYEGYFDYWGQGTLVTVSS VL: EVVMTQSPATLSVSPGERATLSCRASQSVNRNLAWYQQKPGQAPRLLIFGTSTRATGIPARFSGSGSGTEFTLTIDSLQSEHSGLYYCQQYNDWPFTFGPGTKVDIK", "MFI": 3100}

# next binder below
What value of MFI has been recorded for this entry: 11B11 (antibody, V domains shown, Hybridoma supernatant (AlivaMab mouse); captured/detected via mouse Fc) VH: QVTLKESGPVLVKPTETLTLTCTVSGFSLSNAKMGVSWIRQPPGKALEWLAHIFSTDEKSIRRSLRSRLTMSKDTSKSQVVLTMTNMDPVDTATYYCVRDSSNYEGYFDYWGQGTLVTVSS VL: EVLMTQSPATLSVSPGERATLSCRASQSVSTNFAWYQQRPGQAPRLLLFGASTRATGIPGRFSGSGSGTENILTISSLQSEDFAIYFCQQYKDWPFTFGPGSKVEIK
3390
